Hi there, I'd appreciate the recorded Room temperature for 24 h Accuracy (%) for every entry that follows.
protocol.summary: Stability of analytes in rat plasma (auto-sampler, freeze-thaw, room temperature, long-term)
run.parameters: 50 ng/mL, room temperature 24 h
State the answer as a number, implicitly in %.

Q: Look up Room temperature for 24 h Accuracy (%) for this compound: COc1cc(/C=C/C(=O)O)ccc1O [ferulic acid]
Ans: 96.8

Q: Look up Room temperature for 24 h Accuracy (%) for this compound: COC(=O)C1=CO[C@@H](O[C@@H]2O[C@H](CO)[C@@H](O)[C@H](O)[C@H]2O)[C@H]2[C@@H]1C(=O)C[C@@H]2C [verbenalin]
Ans: 88.9

Q: Look up Room temperature for 24 h Accuracy (%) for this compound: C[C@@]12C[C@@]3(O)O[C@@H](O1)[C@]1(COC(=O)c4ccccc4)[C@H]3C[C@@]12O[C@@H]1O[C@H](CO)[C@@H](O)[C@H](O)[C@H]1O [paeoniflorin]
Ans: 106.0

Q: Look up Room temperature for 24 h Accuracy (%) for this compound: COc1ccc([C@@H]2CC(=O)c3c(O)cc(O[C@@H]4O[C@H](CO[C@@H]5O[C@@H](C)[C@H](O)[C@@H](O)[C@H]5O)[C@@H](O)[C@H](O)[C@H]4O)cc3O2)cc1O [hesperidin]
Ans: 93.7
